System: American short-haired guinea pigs
ASSAY NOTES: Topical melanogenesis (pigmentation rating) in guinea pigs
Assay type: in vivo, guinea pig
Parameters: scale not given here
ASSAY CONTEXT: No Penetration Enhancer; sites c and d; 13.61M 1,2-PG, 11.0M 2,3-M-2,3-BD, 11.3M 2-M-1,3-PG, 8.7M 1,2-cs-CPD, 4.0M 3,3-M-1,2-BD
Decide using Pigmentation Rating: a value greater than or equal to 1 is True, a smaller one is False.

{"columns": ["MOLECULE", "CLASSIFICATION"],
 "data": [
  ["CC(CO)CO", "False"],
  ["CC(O)CO (centres unmarked)", "False"],
  ["CC(C)(C)C(O)CO (centres unmarked)", "True"],
  ["O[C@@H]1CCC[C@@H]1O [1,2-cs-CPD, 1,2-cis-cyclopentanediol]", "True"],
  ["CC(C)(O)C(C)(C)O", "False"]
]}

---

Examples of molecules with documented Fold Induction of Tyrosinase Relative to Controls follow.
Tested on: tyrosinase activity in S91 mouse melanoma cells
ASSAY NOTES: Induction of tyrosinase activity in S91 cells
ASSAY CONTEXT: 1 mM (Table 19)
MEASUREMENT NAME: Fold Induction of Tyrosinase Relative to Controls (X)

{"columns": ["MOLECULE", "DISPLAY UNIT", "REPORTED VALUE"],
 "data": [
  ["CC(C)[C@@H]1CC[C@@H](C)C[C@H]1O [(1R,2S,5R)-(−)-menthol]", "X", 1.3],
  ["CC(C)[C@H]1CC[C@H](C)C[C@@H]1O [(1S,2R,5S)-(+)-menthol]", "X", 1.3],
  ["C[C@@H]1CC[C@@H](C(C)(C)O)[C@H](O)C1 (relative stereo) [trans-p-menthane-3,8-diol]", "X", 13.2],
  ["CC1(C)C2CCC1(C)C(O)C2O (stereo not drawn) [2,3-trans-bornanediol]", "X", 12.8],
  ["CC1(C)[C@@H]2C[C@@H](O)[C@@](C)(O)[C@H]1C2 [(1S,2S,3R,5S)-(+)-pinanediol]", "X", 9.9],
  ["CC1CCC(C(C)(C)O)C(O)C1 (stereo not drawn) [cis-p-menthane-3,8-diol]", "X", 3.0],
  ["CC1=C[C@H](O)[C@H]2C[C@@H]1C2(C)C (relative stereo) [(S)-cis-verbenol]", "X", 3.0],
  ["CC1(C)[C@@H]2C[C@H]1[C@@](C)(O)[C@@H](O)C2 (relative stereo) [2,3-cs/ex-PD]", "X", 17.6],
  ["CC1(C)C2CCC1(C)C(O)C2O (stereo not drawn) [2,3-cis/exo-bornanediol]", "X", 28.5],
  ["CC1CCC2CC1C2(C)C [(1R)-(−)-α-pinane]", "X", 0.8],
  ["CC1C(O)CC2CC1C2(C)C (single isomer, unassigned; (-)) [(−)-isopinocampheol]", "X", 3.3],
  ["CC1=CC[C@@H](C(C)(C)O)CC1 [(−)-a-terpineol, (S)-p-menth-1-en-8-ol]", "X", 7.1],
  ["CC1(C)C2CCC1(C)C(O)C2 (centres unmarked) [borneol]", "X", 2.1],
  ["CC1CCC2CC1C2(C)C [(1S)-(−)-α-pinane]", "X", 1.1],
  ["CC1(C)C2CCC(CO)[C@]1(O)C2 (stereo in doubt) [(1R)-(−)-trans-pinane-1,10-diol]", "X", 14.3],
  ["CC1(C)C2CC=C(CO)[C@@H]1C2 [(1R)-(−)-myrtenol, (1R)-2-pinen-10-ol]", "X", 17.6],
  ["CC1(C)[C@@H]2CC(=O)[C@@](C)(O)[C@H]1C2 [(1S,2S,5S,)-2-hydroxy-3-pinanone]", "X", 4.1]
]}
